The values you see were collected from ChEMBL document CHEMBL3817841.

System: Dihydroorotate dehydrogenase (quinone), mitochondrial (Homo sapiens)
Sequence (Q02127 whole entry, the tested form may be a part): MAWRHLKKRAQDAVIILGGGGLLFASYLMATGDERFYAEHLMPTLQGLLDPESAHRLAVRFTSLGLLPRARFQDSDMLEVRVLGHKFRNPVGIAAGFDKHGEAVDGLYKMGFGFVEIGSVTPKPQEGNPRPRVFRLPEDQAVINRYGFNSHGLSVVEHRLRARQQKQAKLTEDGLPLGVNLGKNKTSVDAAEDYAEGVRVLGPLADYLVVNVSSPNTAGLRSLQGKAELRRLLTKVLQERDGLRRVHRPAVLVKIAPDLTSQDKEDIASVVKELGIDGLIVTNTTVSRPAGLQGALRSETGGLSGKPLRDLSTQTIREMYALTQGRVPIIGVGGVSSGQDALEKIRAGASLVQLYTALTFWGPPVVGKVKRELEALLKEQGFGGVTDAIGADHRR
Measurement Description: Binding affinity to N-terminally truncated human DHODH (Met30 to Arg396 residues) expressed in Escherichia coli BL21 (DE3) by surface plasmon resonance assay
Measured Endpoint: Kd (µM)

{"columns": ["Compound", "Units", "Numeric Value"],
 "data": [
  ["CCC(C)c1ccc(-c2nc3ccc(Br)cc3c(C(=O)O)c2C)cc1 (stereo unspecified)", "µM", 0.012]
]}
